These data points were gathered from patent US20260159498A1.

Below, each entry is listed alongside its reported IC50.
- measurement.target: Akt3 (Homo sapiens)
- Construct: endogenous in cells
- assay.notes: Akt3 inhibition activity

> print(dat)
                                   compound  measurement.label  readout.value
1  Cc1cc(Nc2cccc(-c3nc4ccc(Nc5ccnc(C)c5)cc4o3)c2)ccn1 [Compound 42]               IC50      < 5000 nM
2  O=C1c2ccc(Nc3ccncc3)cc2CN1c1ccc(F)c(Nc2ccncc2)c1 [Compound 38]               IC50      < 1000 nM

Need IC50, item Cc1cc(Nc2ccc3oc(-c4cccc(Nc5ccc(F)cc5)c4)nc3c2)ccn1 [Compound 43]
< 5000 nM

Cc1cc(Nc2ccncc2)cc2c1C(=O)N(c1cccc(Nc3ccncc3)c1)C2 [Compound 30] ?
< 1000 nM

Cc1cc(Nc2cccc(N3Cc4cc(Nc5ccnc(C)c5)cc(C)c4C3=O)c2)ccn1 [Compound 45] ?
< 1000 nM

O=C1c2c(F)cc(Nc3ccncc3)cc2CN1c1cccc(Nc2ccncc2)c1 [Compound 34] ?
< 5000 nM

Cc1cc(Nc2cc(C)c3c(c2)CN(c2cccc(Nc4ccncc4)c2)C3=O)ccn1 [Compound 44] ?
< 1000 nM

Cc1ccc(N2Cc3cc(Nc4ccncc4)ccc3C2=O)cc1Nc1ccncc1 [Compound 27] ?
< 1000 nM

* * *

- measurement.target: Akt3 (Homo sapiens, UniProt Q9Y243)
- Construct: endogenous in cells
- Sequence (Q9Y243 whole entry): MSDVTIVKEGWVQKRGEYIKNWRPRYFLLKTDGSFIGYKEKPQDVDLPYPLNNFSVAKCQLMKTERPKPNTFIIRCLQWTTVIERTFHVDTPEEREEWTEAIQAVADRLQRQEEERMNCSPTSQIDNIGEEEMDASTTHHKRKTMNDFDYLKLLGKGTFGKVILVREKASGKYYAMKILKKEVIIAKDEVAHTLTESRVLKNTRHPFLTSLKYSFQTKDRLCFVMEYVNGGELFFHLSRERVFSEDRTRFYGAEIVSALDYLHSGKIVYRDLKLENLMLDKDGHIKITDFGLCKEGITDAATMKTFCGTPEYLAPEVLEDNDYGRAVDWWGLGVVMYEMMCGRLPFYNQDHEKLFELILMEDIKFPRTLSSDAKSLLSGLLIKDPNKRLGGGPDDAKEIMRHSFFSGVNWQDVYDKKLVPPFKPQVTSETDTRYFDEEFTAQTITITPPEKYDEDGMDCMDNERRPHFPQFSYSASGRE
- assay.notes: Akt3 inhibition activity
pIC50: −log10 of the molar value.
measurement.label: pIC50

Answered examples (3):
> print(dat)
                                  structure                   measurement.target  measurement.label  readout.value
1  O=C1c2ccc(Nc3ccncc3)c(F)c2CN1c1cccc(Nc2ccncc2)c1  Akt3 (Homo sapiens, UniProt Q9Y243)              pIC50         > 5.30
2  Cc1cc(Nc2ccncc2)cc(N2Cc3cc(Nc4ccncc4)ccc3C2=O)c1  Akt3 (Homo sapiens, UniProt Q9Y243)              pIC50         > 6.00
3  O=C1c2ccc(Nc3ccncc3)cc2CN1c1cc(F)cc(Nc2ccncc2)c1  Akt3 (Homo sapiens, UniProt Q9Y243)              pIC50         > 5.70

Need pIC50, item Cc1cc(Nc2cccc(-c3nc4cc(Nc5ccnc(C)c5)ccc4o3)c2)ccn1
> 5.70

Cc1cc2c(cc1Nc1ccncc1)CN(c1cccc(Nc3ccncc3)c1)C2=O ?
> 5.30

Cc1cc(Nc2ccc(-c3nc4ccc(Nc5ccnc(C)c5)cc4o3)cc2)ccn1 ?
> 5.30

Cc1cc(Nc2ccc(-c3nc4cc(Nc5ccnc(C)c5)ccc4o3)cc2)ccn1 ?
> 5.30

O=C1c2cc(F)c(Nc3ccncc3)cc2CN1c1cccc(Nc2ccncc2)c1 ?
> 6.00
